assay_context: 318.15 K; 101 kPa
readout_kind: viscosity (mPa·s)

[[record]]
smiles_text = "C#CCO"
observed_result = 1.01

[[record]]
smiles_text = "CCCCCCCCC"
observed_result = 0.512

[[record]]
smiles_text = "CCN(CCO)CCO"
observed_result = 22.31

[[record]]
smiles_text = "CCC(O)CC"
observed_result = 1.895


###

assay_context: 298.15 K; 100 kPa
readout_kind: viscosity (mPa·s)

[[record]]
compound = "CC(C)OC(C)C"
readout_kind = "viscosity"
result_unit = "mPa·s"
observed_result = 0.319

[[record]]
compound = "COCOC"
readout_kind = "viscosity"
result_unit = "mPa·s"
observed_result = 0.357

[[record]]
compound = "CCCOCC(C)O (centres undefined)"
readout_kind = "viscosity"
result_unit = "mPa·s"
observed_result = 2.451

[[record]]
compound = "CCCCCCCCC"
readout_kind = "viscosity"
result_unit = "mPa·s"
observed_result = 0.668

